System: KM12C
Assay: Antiproliferative activity against human KM12-C cells harbouring wild-type KRAS and RON delta 160 assessed as cell growth inhibition measured after 72 hrs by MTS assay
Assay type: functional
Field: label. Allowed values: class 1 (GI50 < 20 nM) or class 0 (GI50 >= 20 nM).

CCOc1ccn(-c2ccc(F)cc2)c(=O)c1C(=O)Nc1ccc(Oc2ccnc3cc(-c4ccc(CNCCOC)cn4)sc23)c(F)c1 :: class 0

### Prompt Does this molecule meet the criterion GI50 < 20 nM? "CCOc1ccn(-c2ccccc2)c(=O)c1C(=O)Nc1ccc(Oc2ccnc3cc(-c4ccc(CN5CCOCC5)cn4)sc23)c(F)c1"
### Response class 1

### Prompt Lab note: confirm whether the reported GI50 for this molecule is below 20 nM, equality not counting. molecule: "CCOc1ccn(-c2ccc(F)cc2)c(=O)c1C(=O)Nc1cc(F)c(Oc2ccnc3cc(-c4ccc(CN5CCOCC5)cn4)sc23)c(F)c1"
### Response class 0

### Prompt Regarding "CN(C)CCOc1ccn(-c2ccc(F)cc2)c(=O)c1C(=O)Nc1ccc(Oc2ccnc3cc(-c4ccc(CN5CCOCC5)cn4)sc23)c(F)c1" , kindly confirm whether its GI50 is beneath 20 nM.
### Response class 0

### Prompt Take the molecule "O=C(Nc1ccc(Oc2ccnc3cc(-c4ccc(CN5CCOCC5)cn4)sc23)c(F)c1)c1c(OCCC2CC2)ccn(-c2ccc(F)cc2)c1=O" and say whether its GI50 is less than 20 nM.
### Response class 1

###

Assay: AUC(0 to infinity) in Sprague-Dawley rat at 1 mg/kg, iv measured after 24 hrs by LC/MS/MS analysis
Type: ADME, organism-based
Design: time 24 hrs, dose 1 mg/kg, route iv
Conditions: Sprague-Dawley, in vivo
endpoint_label: AUC(0-inf) (ng·h/mL)
Kindly answer with a numeric value in ng·h/mL, unit omitted.

### Prompt Return AUC(0-inf) for the following molecule: "CCOc1ccn(-c2ccc(F)cc2)c(=O)c1C(=O)Nc1ccc(Oc2ccnc3cc(-c4cn(C)cn4)sc23)c(F)c1"
### Response 4370

###

Experiment: AUC(0 to infinity) in Sprague-Dawley rat at 5 mg/kg, po measured after 24 hrs by LC/MS/MS analysis
Type: ADME, organism-based
Set-up: dose 5 mg/kg, time 24 hrs, route po
Conditions: Sprague-Dawley, in vivo
endpoint_label: AUC(0-inf) (ng·h/mL)
The answer is to be given in ng·h/mL; state only the numeric part.

### Prompt Determine its reported AUC(0-inf): "CCOc1ccn(-c2ccc(F)cc2)c(=O)c1C(=O)Nc1ccc(Oc2ccnc3cc(-c4cn(C)cn4)sc23)c(F)c1"
### Response 6670

###

# key: entry, value: remaining at 0.5 h
Assay: Metabolic stability in human liver microsomes assessed as parent compound remaining after 30 mins in presence of NADPH by LC/MS/MS analysis
Assay type: ADME, Microsome
Conditions: read-out: Stability
Provide the reading as a plain figure in %.

### Prompt Recall and state the measured remaining at 0.5 h for "CCOc1ccn(-c2ccc(F)cc2)c(=O)c1C(=O)Nc1ccc(Oc2ccnc3cc(-c4ccc(CN5CCOCC5)cn4)sc23)c(F)c1" .
### Response 69

### Prompt Give the measured remaining at 0.5 h for "CCOc1ccn(-c2ccc(F)cc2)c(=O)c1C(=O)Nc1ccc(Oc2ccnc3cc(-c4cn(C)cn4)sc23)c(F)c1"
### Response 49

###

Test system: HT-29
Experiment: Antiproliferative activity against human HT-29 cells harbouring wild-type KRAS and RON delta 160 assessed as cell growth inhibition measured after 72 hrs by MTS assay
Assay type: functional
Binary label based on GI50 with cut-off 2000 nM: below gives y, not below gives n.

# count of solved cases: 8
CC(C)COc1ccn(-c2ccc(F)cc2)c(=O)c1C(=O)Nc1ccc(Oc2ccnc3cc(-c4ccc(CN5CCOCC5)cn4)sc23)c(F)c1 :: y
CCOc1ccn(-c2ccc(F)cc2)c(=O)c1C(=O)Nc1ccc(Oc2ccnc3cc(-c4ccc(CN5CC(F)C5)cn4)sc23)c(F)c1 :: y
CCOc1ccn(-c2ccc(F)cc2)c(=O)c1C(=O)Nc1ccc(Oc2ccnc3cc(-c4ccc(OCCN5CCOCC5)cn4)sc23)c(F)c1 :: n
CN1CCC(Oc2ccn(-c3ccc(F)cc3)c(=O)c2C(=O)Nc2ccc(Oc3ccnc4cc(-c5ccc(CN6CCOCC6)cn5)sc34)c(F)c2)C1 (configuration not stated) :: n
CCOc1ccn(-c2ccc(Cl)cc2)c(=O)c1C(=O)Nc1ccc(Oc2ccnc3cc(-c4ccc(CN5CCOCC5)cn4)sc23)c(F)c1 :: y
CCOc1ccn(-c2ccc(F)cc2)c(=O)c1C(=O)Nc1ccc(Oc2ccnc3cc(-c4ccc(CCN5CCOCC5)cn4)sc23)c(F)c1 :: y
CCOc1ccn(-c2ccc(F)cc2)c(=O)c1C(=O)Nc1ccc(Oc2ccnc3cc(-c4ccc(CN5CCC(F)(F)CC5)cn4)sc23)c(F)c1 :: y
CCOc1ccn(-c2ccc(F)cc2)c(=O)c1C(=O)Nc1ccc(Oc2ccnc3cc(-c4ccc(CN5CCC(F)(F)C5)cn4)sc23)c(F)c1 :: n

### Prompt Please let me know if "CCOc1ccn(-c2ccc(F)cc2)c(=O)c1C(=O)Nc1ccc(Oc2ccnc(N)c2Cl)c(F)c1" shows GI50 below 2000 nM.
### Response n

### Prompt Dear reviewer, please state whether "CCOc1ccn(-c2ccc(F)cc2)c(=O)c1C(=O)Nc1ccc(Oc2ccnc3cc(-c4ccc(CN5CCOCC5)cn4)sc23)cc1Cl" has GI50 strictly beneath 2000 nM.
### Response y

### Prompt I wonder whether "CN(C)CCOc1ccn(-c2ccc(F)cc2)c(=O)c1C(=O)Nc1ccc(Oc2ccnc3cc(-c4ccc(CN5CCOCC5)cn4)sc23)c(F)c1" has GI50 below 2000 nM. Can you tell?
### Response y

###

// values below are reported half-life
Assay: Half life in Sprague-Dawley rat at 5 mg/kg, po measured after 24 hrs by LC/MS/MS analysis
Type: ADME, organism-based
Conditions: in vivo
Output spec: scalar in min, unitless text.

CCOc1ccn(-c2ccc(F)cc2)c(=O)c1C(=O)Nc1ccc(Oc2ccnc3cc(-c4ccc(CN5CCOCC5)cn4)sc23)c(F)c1 :: 186

Field: next molecule
### Prompt Answer with reported half-life of "CCOc1ccn(-c2ccc(F)cc2)c(=O)c1C(=O)Nc1ccc(Oc2ccnc3cc(-c4cn(C)cn4)sc23)c(F)c1"
### Response 227

###

Test: Volume of distribution at steady state in Sprague-Dawley rat at 1 mg/kg, iv measured after 24 hrs by LC/MS/MS analysis
Type: ADME, organism-based
Settings: in vivo, read-out: Vdss
Items are presented alongside their recorded Vd.
Use L/kg as the unit, but write only the number.

CCOc1ccn(-c2ccc(F)cc2)c(=O)c1C(=O)Nc1ccc(Oc2ccnc3cc(-c4cn(C)cn4)sc23)c(F)c1 :: 0.64

Kindly review the next compound as well.
### Prompt Please report the measured Vd for "CCOc1ccn(-c2ccc(F)cc2)c(=O)c1C(=O)Nc1ccc(Oc2ccnc3cc(-c4ccc(CN5CCOCC5)cn4)sc23)c(F)c1"
### Response 2.25

###

Entries and their measured pIC50 follow.
Target: Macrophage-stimulating protein receptor (Homo sapiens)
Assay: Inhibition of RON (unknown origin)
Schema: pIC50 number; meaning minus log10 of the concentration expressed in molar units.

### Prompt Read the entry "CCOc1ccn(-c2ccc(F)cc2)c(=O)c1C(=O)Nc1ccc(Oc2ccnc3cc(-c4cn(C)cn4)sc23)c(F)c1" and write its reported pIC50.
### Response 8.05

### Prompt Determine its reported pIC50: "Cc1ccc(C(=O)Nc2ccc(Oc3cc4cnn(C)c4cc3-c3cn[nH]c3)c(F)c2)c(=O)n1-c1ccc(F)cc1"
### Response 7.92

###

Assay: Oral bioavailability in Sprague-Dawley rat at 5 mg/kg measured after 24 hrs by LC/MS/MS analysis
Assay type: ADME, organism-based
Conditions: Sprague-Dawley, in vivo
endpoint_label: bioavailability
Returns: string containing the number followed by the unit.

### Prompt Give the reported bioavailability for this compound. "CCOc1ccn(-c2ccc(F)cc2)c(=O)c1C(=O)Nc1ccc(Oc2ccnc3cc(-c4cn(C)cn4)sc23)c(F)c1"
### Response 30.5%

###

Examples of compounds with documented IC50 follow.
Target: Macrophage-stimulating protein receptor (Homo sapiens, UniProt Q04912)
Assay: Inhibition of N-terminal GST-tagged human recombinant RON (979 to 1400(end) residues) expressed in Sf21 cells incubated for 20 mins followed by ATP addition measured after 60 mins by TR-FRET based LanthaScreen kinase assay
For clarity, give the value followed by its unit.

Solved entries:
CCOc1ccn(-c2ccc(F)cc2)c(=O)c1C(=O)Nc1ccc(Oc2ccnc3cc(-c4ccc(CN5CCC(OC)C5)cn4)sc23)c(F)c1 (stereo not given) :: 0.69 nM
CCOc1ccn(-c2ccc(F)cc2)c(=O)c1C(=O)Nc1ccc(Oc2ccnc3cc(-c4ccc(CCN5CCOCC5)cn4)sc23)c(F)c1 :: 2.83 nM
CCCCOc1ccn(-c2ccc(F)cc2)c(=O)c1C(=O)Nc1ccc(Oc2ccnc3cc(-c4ccc(CN5CCOCC5)cn4)sc23)c(F)c1 :: 0.98 nM
CCOc1ccn(-c2ccc(F)cc2)c(=O)c1C(=O)Nc1ccc(Oc2ccnc3cc(-c4ccc(CN5CCC(F)(F)CC5)cn4)sc23)c(F)c1 :: 6 nM
CCOc1ccn(-c2ccc(F)cc2)c(=O)c1C(=O)Nc1ccc(Oc2ccnc3cc(-c4cn(C)cn4)sc23)c(F)c1 :: 0.41 nM

### Prompt Please list IC50 recorded for the compound CCOc1ccn(-c2ccc(F)cc2)c(=O)c1C(=O)Nc1ccc(Oc2ccnc3cc(-c4ccc(CN5CCC(F)C5)cn4)sc23)c(F)c1 (stereo not given)
### Response 0.82 nM

### Prompt Fill in reported IC50 for this entry: "O=C(Nc1ccc(Oc2ccnc3cc(-c4ccc(CN5CCOCC5)cn4)sc23)c(F)c1)c1c(OCCC2CC2)ccn(-c2ccc(F)cc2)c1=O"
### Response 0.72 nM

### Prompt Identify IC50 associated with the compound "CCCOc1ccn(-c2ccc(F)cc2)c(=O)c1C(=O)Nc1ccc(Oc2ccnc3cc(-c4ccc(CN5CCOCC5)cn4)sc23)c(F)c1"
### Response 0.49 nM

### Prompt Find the measured IC50 of "CC(C)COc1ccn(-c2ccc(F)cc2)c(=O)c1C(=O)Nc1ccc(Oc2ccnc3cc(-c4ccc(CN5CCOCC5)cn4)sc23)c(F)c1" and report it.
### Response 0.62 nM

### Prompt Answer with the recorded IC50 of "CCOc1ccn(-c2cccc(F)c2)c(=O)c1C(=O)Nc1ccc(Oc2ccnc3cc(-c4ccc(CN5CCOCC5)cn4)sc23)c(F)c1" only.
### Response 0.74 nM
